Test system: L1210 leukemia ip in BDF1 mice, survival T/C
run.description: NCI In Vivo Anticancer Drug Screen. Data for tumor model L1210 Leukemia (intraperitoneal) in B6D2F1 (BDF1) mice
details: endpoint: mean survival time; dose: 5.0 mg/kg/injection; schedule: Q01DX001 (ip); vehicle: saline; higher = longer survival
Procedure: The antitumor activity of compounds was measured in mice bearing transplantable tumors. Survival or tumor size were measured and the results are expressed as the measurement made in the treated group (T) divided by the measurement made in the vehicle treated control group (C). The tumor model used in this assay is L1210 Leukemia (intraperitoneal) in B6D2F1 (BDF1) mice
Toxic doses and inconclusive results are not listed.
T/C overview
observable: T/C

INSERT INTO assay_data (compound, observed_value) VALUES
  ('Cc1cc(O)[nH]c(=O)c1', '105 % of control'),
  ('O=[N+]([O-])c1c(Cl)nc2ccccn12', '100 % of control'),
  ('O=C(Nc1cccc(Cl)c1)OCC#CCN1CCCC1', '105 % of control'),
  ('CCOC(=O)c1ccc(N(C=O)CCC(=O)CCl)cc1', '95 % of control'),
  ('OC1COC(n2cnc3c(=S)nc[nH]c32)C(O)C1O (configuration not stated)', '98 % of control'),
  ('O=C1C=C(O)C(=O)C=C1O', '103 % of control'),
  ('CCCCCCC(C)NCCO (configuration not stated)', '97 % of control');
